# tested_on: truncated human beta-secretase (residues 1-458, His6-tagged at the C-terminus) (Homo sapiens (Human))
# Sequence (P56817 22-458): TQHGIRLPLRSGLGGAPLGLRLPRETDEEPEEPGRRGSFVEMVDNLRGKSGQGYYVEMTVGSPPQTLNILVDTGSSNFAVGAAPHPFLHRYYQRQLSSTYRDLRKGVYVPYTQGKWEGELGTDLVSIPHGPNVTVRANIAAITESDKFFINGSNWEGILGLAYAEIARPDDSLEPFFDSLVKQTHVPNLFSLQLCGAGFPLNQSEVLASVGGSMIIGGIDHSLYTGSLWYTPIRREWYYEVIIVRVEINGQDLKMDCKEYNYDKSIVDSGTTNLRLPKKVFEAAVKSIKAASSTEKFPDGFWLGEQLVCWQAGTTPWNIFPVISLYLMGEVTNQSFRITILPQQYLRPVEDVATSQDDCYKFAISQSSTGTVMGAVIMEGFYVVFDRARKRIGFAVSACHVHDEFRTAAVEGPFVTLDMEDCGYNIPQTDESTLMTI
# method_summary: BACE enzyme assay (fluorescence quench assay, Example 434A)
# Type: biochemical
# study_conditions: footnote a: protocols described in Example 434A; read-out: IC50
pIC50: −log10 of the molar value.
Lab note: compare pIC50 against 7. Equal or greater, write Condition met. Smaller, write Condition not met.

Solved cases (2 shown):
{"molecule": "CN1OC2(N=C1N)c1cc(-c3cccc(C#N)c3)ccc1CC21CCC(NCC(F)(F)F)CC1 (stereo not drawn) [Compound 98]", "class_name": "Condition not met"}
{"molecule": "CN1C(=O)C2(N=C1N)c1cc(C#CC3CC3)ccc1CC21CCC(O)CC1 (stereo not drawn) [Compound 151]", "class_name": "Condition not met"}

Say whether COC1CCC2(CC1)Cc1ccc(OCC3CC3)cc1C21N=C(N)N(C)O1 (stereo not drawn) [Compound 110] shows pIC50 of 7 or more.
Condition met

Say whether COC1CCC2(CC1)Cc1ccc(-c3cccc(C(F)(F)F)c3)cc1C21N=C(N)N(C)O1 (stereo not drawn) [Compound 20] shows pIC50 of 7 or more.
Condition met

Say whether CN1OC2(N=C1N)c1cc(-c3ccnnc3)ccc1CC21CCc2ccccc2CC1 (stereo not drawn) [Compound 122] shows pIC50 of 7 or more.
Condition met

Say whether CCN1C(=O)C2(N=C1N)c1cc(C#CC3CC3)ccc1CC21CCC(OC)CC1 (stereo not drawn) [Compound 138] shows pIC50 of 7 or more.
Condition met

Say whether CN1OC2(N=C1N)c1cc(-c3cccc(C#N)c3)ccc1CC21CCC(NCC(F)(F)F)CC1 (stereo not drawn) [Compound 97] shows pIC50 of 7 or more.
Condition not met

Say whether CN1OC2(N=C1N)c1cc(C#CC3CC3)ccc1CC21CCc2ccccc2CC1 (stereo not drawn) [Compound 105] shows pIC50 of 7 or more.
Condition met

Say whether CO[C@H]1CC[C@@]2(CC1)Cc1ccc(-c3cccc(C#N)c3)cc1C21CC(=O)N(C)C(N)=N1 (stereo partly drawn) [Compound 65] shows pIC50 of 7 or more.
Condition not met

---

# tested_on: H4 neuroglioma cell line stably expressing APP with the KM-NL Swedish mutation (H4-APPsw); soluble Amyloid Beta 1-40 (Aβ 1-40) (Homo sapiens (Human))
# method_summary: BACE cell assay: soluble Aβ 1-40 in culture media of H4-APPsw cells (AlphaLISA/ELISA)
# study_conditions: in vitro cell activity; H4-APPsw cells treated overnight, secreted Aβ 1-40 in culture media
pIC50: −log10 of the molar value.
readout: pIC50

Below, 5 compounds whose answers are already recorded.
{"compound": "CN1C(=O)C2(N=C1N)c1cc(-c3cc(F)cc(Cl)c3)ccc1CC21CCc2ccccc2CC1 (stereo not drawn)", "pIC50": "> 5.30"}
{"compound": "CN1OC2(N=C1N)c1cc(-c3cccc(C#N)c3)ccc1CC21CCCC1 (stereo not drawn)", "pIC50": "> 6.00"}
{"compound": "COC1CCC2(CC1)Cc1ccc(-c3cccc(C(F)(F)F)c3)cc1C21N=C(N)N(C)O1 (stereo not drawn)", "pIC50": "> 6.30"}
{"compound": "CN1OC2(N=C1N)c1cc(-c3cccc(C#N)c3)ccc1CC21C=CC(c2ccccc2)C1 (stereo not drawn) [Compound 47]", "pIC50": "> 5.00"}
{"compound": "CN1OC2(N=C1N)c1cc(-c3cccc(C#N)c3)ccc1CC21C=CC(c2ccccc2)C1 (stereo not drawn) [Compound 53]", "pIC50": "> 4.30"}

Summary for this compound, CC1=C(C)CC2(CC1)Cc1ccc(-c3cccc(C#N)c3)cc1C21N=C(N)N(C)O1 (stereo not drawn) : pIC50 is > 5.30

---

# tested_on: truncated human beta-secretase (residues 1-458, His6-tagged at the C-terminus) (Homo sapiens (Human))
# method_summary: BACE enzyme assay (fluorescence quench assay, Example 434A)
# Type: biochemical
# study_conditions: read-out: IC50
readout: IC50 (nM)
Please reply with the bare figure in nM and do not write the unit itself.

{"compound": "CN1OC2(N=C1N)c1cc(-c3cccc(C#N)c3)ccc1CC21CCc2cc(F)ccc2C1 (centres unmarked)", "unit_text": "nM", "IC50": 178}

Summary for this compound, CN1OC2(N=C1N)c1cc(-c3cccnn3)ccc1CC21CCc2ccccc2CC1 (centres unmarked) : IC50 is 56.2

Summary for this compound, CO[C@H]1CC[C@]2(CC1)Cc1ccc(-c3cccc(C#N)c3)cc1C21CC(=O)N(C)C(N)=N1 (some centres unmarked) : IC50 is 970

Summary for this compound, COC1CCC2(CC1)Cc1ccc(-c3cccnc3)cc1C21CC(=O)N(C)C(N)=N1 (centres unmarked) : IC50 is 1550

Summary for this compound, CN1OC2(N=C1N)c1cc(Br)ccc1CC21CCc2ccccc2CC1 (centres unmarked) : IC50 is 64

Summary for this compound, COC1CCC2(CC1)Cc1ccc(-c3cc(F)cc(Cl)c3)cc1C21CC(=O)N(C)C(N)=N1 (centres unmarked) : IC50 is 173

Summary for this compound, CCO[C@H]1CC[C@]2(CC1)Cc1ccc(-c3cccc(C#N)c3)cc1C21N=C(N)N(C)O1 (some centres unmarked) : IC50 is 41.7

Summary for this compound, CN1OC2(N=C1N)c1cc(-c3cccc(C(F)(F)F)c3)ccc1CC21CCc2ccccc2CC1 (centres unmarked) : IC50 is 158

---

# tested_on: truncated human beta-secretase (residues 1-458, His6-tagged at the C-terminus) (Homo sapiens (Human))
# method_summary: BACE enzyme assay (fluorescence quench assay, Example 434A)
# Type: biochemical
# study_conditions: footnote a: protocols described in Example 434A; read-out: IC50
readout: log10 of IC50 (log10 of the value in nM)
In our notation, the value equals log10 of IC50 in nM.

{"compound": "CN1OC2(N=C1N)c1cc(-c3cccc(C#N)c3)ccc1CC21CCCC1 (centres unmarked)", "readout": "log10 of IC50", "reported_value": 2.65}
{"compound": "CC1=C(C)CC2(CC1)Cc1ccc(-c3cccc(C#N)c3)cc1C21N=C(N)N(C)O1 (centres unmarked)", "readout": "log10 of IC50", "reported_value": 2.21}
{"compound": "CN1OC2(N=C1N)c1cc(-c3cccc(C#N)c3)ccc1CC21CCC(OC(F)F)CC1 (centres unmarked)", "readout": "log10 of IC50", "reported_value": 0.67}
{"compound": "COc1cncc(-c2ccc3c(c2)C2(N=C(N)N(C)O2)C2(CCC(OC)CC2)C3)n1 (centres unmarked)", "readout": "log10 of IC50", "reported_value": 2.29}
{"compound": "COC1CCC2(CC1)Cc1ccc(C#CC3CC3)cc1C21N=C(N)N(C)O1 (centres unmarked)", "readout": "log10 of IC50", "reported_value": 0.65}

Summary for this compound, COC1CCC2(CC1)Cc1ccc(C3=CC(O)CC3)cc1C21N=C(N)N(C)C1=O (centres unmarked) : log10 of IC50 is 1.52

Summary for this compound, COC1CCC2(CC1)Cc1ccc(CCC3CC3)cc1C21N=C(N)N(C)O1 (centres unmarked) : log10 of IC50 is 1.24

Summary for this compound, COC1CCC2(CC1)Cc1ccc(C#CC3CC3)cc1C21N=C(N)N(Cc2ccccc2)C1=O (centres unmarked) : log10 of IC50 is 0.30

---

As shown below, each of these molecules has a reported IC50 value.
# tested_on: H4 neuroglioma cell line stably expressing APP with the KM-NL Swedish mutation (H4-APPsw); soluble Amyloid Beta 1-40 (Aβ 1-40) (Homo sapiens (Human), UniProt P56817)
# Sequence (P56817 46-501 limits assumed, change not shown): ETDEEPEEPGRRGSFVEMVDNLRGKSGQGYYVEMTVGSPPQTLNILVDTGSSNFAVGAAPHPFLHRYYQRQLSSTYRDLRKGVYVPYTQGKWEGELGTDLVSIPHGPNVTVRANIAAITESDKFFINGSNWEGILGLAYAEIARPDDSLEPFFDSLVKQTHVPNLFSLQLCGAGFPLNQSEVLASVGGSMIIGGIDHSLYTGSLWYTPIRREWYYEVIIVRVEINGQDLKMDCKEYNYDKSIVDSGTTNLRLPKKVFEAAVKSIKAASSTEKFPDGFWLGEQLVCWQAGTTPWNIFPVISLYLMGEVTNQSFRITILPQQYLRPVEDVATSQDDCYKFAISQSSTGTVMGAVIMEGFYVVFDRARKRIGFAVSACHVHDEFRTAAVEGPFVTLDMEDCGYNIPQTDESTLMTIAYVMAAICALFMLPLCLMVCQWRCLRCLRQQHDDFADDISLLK
# method_summary: BACE cell assay: soluble Aβ 1-40 in culture media of H4-APPsw cells (AlphaLISA/ELISA)
# study_conditions: in vitro cell activity; H4-APPsw cells treated overnight, secreted Aβ 1-40 in culture media

Below, 5 molecules whose answers are already recorded.
{"molecule": "CN1OC2(N=C1N)c1cc(-c3cccc(C#N)c3)ccc1CC21CCc2c(F)cccc2C1 (stereo not shown) [Compound 54]", "reported_value": "< 5 µM"}
{"molecule": "CN1C(=O)C2(N=C1N)c1cc(Br)ccc1CC21CCc2ccccc2CC1 (stereo not shown) [Compound 56]", "reported_value": "< 5 µM"}
{"molecule": "CN1OC2(N=C1N)c1cc(Cl)ccc1CC21CCc2ccccc2CC1 (stereo not shown) [Compound 30]", "reported_value": "< 5 µM"}
{"molecule": "CN1OC2(N=C1N)c1cc(-c3cccc(C#N)c3)ccc1CC21CCc2cc(F)ccc2C1 (stereo not shown) [Compound 43]", "reported_value": "< 5 µM"}
{"molecule": "CN1OC2(N=C1N)c1cc(-c3cccc(C#N)c3)ccc1CC21CC=C(F)CC1 (stereo not shown) [Compound 34]", "reported_value": "< 1 µM"}

Summary for this molecule, CN1OC2(N=C1N)c1cc(-c3cccc(C#N)c3)ccc1CC21Cc2ccccc2C1 (stereo not shown) [Compound 40] : IC50 is < 5 µM

Summary for this molecule, COC1CCC2(CC1)Cc1ccc(-c3cccnc3)cc1C21CC(=O)N(C)C(N)=N1 (stereo not shown) [Compound 59] : IC50 is < 0.5 µM

Numbers sourced from patent US8633212B2.
